# target_of_assay: purified mutant MGL (mut-MGLL 11-313 L179S L186S) (Homo sapiens, UniProt Q99685, L169S/L176S)
# Construct: purified mutant MGL (mut-MGLL 11-313 L179S L186S)
# Sequence (Q99685 1-303 L169S/L176S): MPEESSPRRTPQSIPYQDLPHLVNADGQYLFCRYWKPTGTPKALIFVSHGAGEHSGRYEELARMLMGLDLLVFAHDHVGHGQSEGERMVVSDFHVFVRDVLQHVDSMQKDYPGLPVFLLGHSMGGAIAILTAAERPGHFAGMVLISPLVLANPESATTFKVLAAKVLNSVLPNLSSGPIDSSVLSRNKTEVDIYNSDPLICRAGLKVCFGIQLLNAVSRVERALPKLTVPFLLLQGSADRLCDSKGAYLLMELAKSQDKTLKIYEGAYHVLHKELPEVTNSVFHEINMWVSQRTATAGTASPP
# assay_remarks: MGL enzyme activity assay (4MU-B cleavage), mutant MGL
# conditions: mutant MGL 5 nM, 4MU-B 10 μM, 37° C.; read-out: MGL mutant inh IC50
pIC50: −log10 of the molar value.
quantity_measured: pIC50

See these solved cases before continuing.
compound | pIC50
O=C(c1ccc2c(Br)cccc2c1)N1CC(N[C@H]2CCN(C(=O)c3ccccc3)C2)C1 [Cpd 22] | 7.47
Cc1c(C(=O)N2CC(N[C@H]3CCN(C(=O)c4ccccc4)C3)C2)sc2ccccc12 [Cpd 68] | 7.07
O=C(c1ccc(-c2cccc(C(F)(F)F)c2)cc1)N1CC(N[C@H]2CN(C(=O)c3ccccc3)CC2F)C1 (single isomer, unassigned) [Cpd 63] | 8.20
CN(C1CN(C(=O)c2ccc(Cc3ccccc3)cc2)C1)[C@H]1CCN(C(=O)c2ccccc2)C1 [Cpd 14] | 8.30
O=C(c1ccc(-c2cccc(C(F)(F)F)c2)cc1)N1CC(N[C@@H]2CN(C(=O)c3ccccc3)C[C@H]2O)C1 (relative stereo) [Cpd 72] | 6.12

a = O=C(c1ccc2c(Br)cccc2c1)N1CC(N(O)[C@H]2CCN(C(=O)c3ccccc3)C2)C1 [Cpd 34]
b = O=C(c1ccccc1)N1CC[C@H](NC2CN(C(=O)c3sc4ccccc4c3-c3ccccc3)C2)C1 [Cpd 65]
c = O=C(c1ccc2c(-c3ccccc3)c[nH]c2c1)N1CC(N[C@H]2CCN(C(=O)c3ccccc3)C2)C1 [Cpd 57]
Prompt line: Output the entries ranked by pIC50 from maximum down to minimum. Put the labels in the requested order and write them down.
Response line: a, c, b

P = O=C(c1ccc(-c2ccc(Cl)c(Cl)c2)cc1)N1CC(N[C@H]2CCN(C(=O)c3ccccc3)C2)C1 [Cpd 30]
Q = O=C(c1ccccc1)N1CCC(NC2CN(C(=O)c3ccc(C(F)c4ccc(C(F)(F)F)cc4)cc3)C2)C1 (stereo not shown) [Cpd 69]
Prompt line: Task for the reader: decide whether P or Q has the larger pIC50. Let me know the label of the one you choose.
Response line: P

* * *

# target_of_assay: purified wild type MGL (wt-MGLL 6H-11-313) (Homo sapiens, UniProt Q99685)
# Sequence (Q99685 1-303): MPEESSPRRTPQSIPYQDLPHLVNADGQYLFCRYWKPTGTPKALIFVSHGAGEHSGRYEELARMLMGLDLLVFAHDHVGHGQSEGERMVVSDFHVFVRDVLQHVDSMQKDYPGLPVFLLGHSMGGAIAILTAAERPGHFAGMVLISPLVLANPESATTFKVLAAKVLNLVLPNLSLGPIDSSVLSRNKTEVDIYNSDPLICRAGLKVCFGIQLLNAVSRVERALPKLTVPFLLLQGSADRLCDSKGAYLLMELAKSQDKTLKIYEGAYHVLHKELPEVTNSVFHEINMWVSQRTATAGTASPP
quantity_measured: IC50

See these solved cases before continuing.
smiles_data | target_of_assay | quantity_measured | reading
Cn1cc(-c2ccc(C(F)(F)F)cc2)c2ccc(C(=O)N3CC(N[C@H]4CCN(C(=O)c5nccs5)C4)C3)cc21 | purified wild type MGL (wt-MGLL 6H-11-313) (Homo sapiens, UniProt Q99685) | IC50 | 10.7 nM
Cc1c(C(=O)N2CC(N[C@H]3CCN(C(=O)c4cscn4)C3)C2)sc2ccc(-c3cccc(C(F)(F)F)c3)cc12 | purified wild type MGL (wt-MGLL 6H-11-313) (Homo sapiens, UniProt Q99685) | IC50 | < 5 nM
O=C(c1ccc2c(-c3cccc(F)c3)c[nH]c2c1)N1CC(N[C@H]2CCN(C(=O)c3cscn3)C2)C1 | purified wild type MGL (wt-MGLL 6H-11-313) (Homo sapiens, UniProt Q99685) | IC50 | 50.4 nM
O=C(c1ccc2c(-c3cccc(C(F)(F)F)c3)c[nH]c2c1)N1CC(N[C@H]2CCN(C(=O)c3cscn3)C2)C1 | purified wild type MGL (wt-MGLL 6H-11-313) (Homo sapiens, UniProt Q99685) | IC50 | < 5 nM
O=C(c1cscn1)N1CC[C@H](NC2CN(C(=O)c3cc4ccc(-c5cccc(C(F)(F)F)c5)cc4s3)C2)C1 | purified wild type MGL (wt-MGLL 6H-11-313) (Homo sapiens, UniProt Q99685) | IC50 | < 5 nM
O=C(c1ccc2c(-c3ccccc3)ncnc2c1)N1CC(N[C@H]2CCN(C(=O)c3nccs3)C2)C1 | purified wild type MGL (wt-MGLL 6H-11-313) (Homo sapiens, UniProt Q99685) | IC50 | 311 nM
Cn1nc(-c2ccccc2)c2cc(C(=O)N3CC(N[C@H]4CCN(C(=O)c5nccs5)C4)C3)ccc21 | purified wild type MGL (wt-MGLL 6H-11-313) (Homo sapiens, UniProt Q99685) | IC50 | 22.4 nM
O=C(c1ccc(Cc2cccc(C(F)(F)F)c2)cc1)N1CC(N[C@H]2CCN(C(=O)c3ccccc3)C2)C1 | purified wild type MGL (wt-MGLL 6H-11-313) (Homo sapiens, UniProt Q99685) | IC50 | < 5 nM

Could you now look at the following molecule, please?
Prompt line: Please give measured IC50 of the following entry: `O=C(c1ccc2c(-c3ccc(F)cc3)c[nH]c2c1)N1CC(N[C@H]2CCN(C(=O)c3ccccc3)C2)C1`
Response line: 297 nM

* * *

# target_of_assay: purified mutant MGL (mut-MGLL 11-313 L179S L186S) (Homo sapiens, UniProt Q99685, L169S/L176S)
# Construct: purified mutant MGL (mut-MGLL 11-313 L179S L186S)
# assay_remarks: MGL enzyme activity assay (4MU-B cleavage), mutant MGL
# conditions: mutant MGL 5 nM, 4MU-B 10 μM, 37° C.; read-out: MGL mutant inh IC50
# Procedure: All rate-based assays were performed in black 384-well polypropylene PCR microplates (Abgene) in a total volume of 30 μL. […] The fluorescence change due to 4MU-B cleavage was monitored with excitation and emission wavelengths of 335 and 440 nm, respectively, and a bandwidth of 10 nm (Safire^2, Tecan) at 37° C. for 5 min. […]
quantity_measured: IC50

molecule | IC50
O=C(c1ccccc1)N1CC[C@H](NC2CN(C(=O)c3sc4cc(F)ccc4c3Cl)C2)C1 | < 5 nM

Prompt line: Please give measured IC50 of the following entry: `O=C(c1ccc(Cc2ccccc2)cc1)N1CC(N[C@H]2CCN(C(=O)c3ccsc3)C2)C1`
Response line: < 5 nM

Prompt line: Please give measured IC50 of the following entry: O=C(c1ccc(-c2cccc(C(F)(F)F)c2)cc1)N1CC(NC2CN(C(=O)c3ccccc3)CC2F)C1 (stereo not drawn)
Response line: < 5 nM

Prompt line: Please give measured IC50 of the following entry: `O=C(c1ccc(-c2cccc(C(F)(F)F)c2)cc1)N1CC(N[C@H]2CCN(C(=O)c3ccccc3)C2)C1`
Response line: < 5 nM

Prompt line: Please give measured IC50 of the following entry: O=C(c1ccc(-c2ccccc2)cc1)N1CC(N[C@@H]2CN(C(=O)c3ccccc3)CC2F)C1 (stereo partly drawn)
Response line: > 16700 nM

Prompt line: Please give measured IC50 of the following entry: `O=C(c1ccc(-c2cccc(C(F)(F)F)c2)cc1)N1CC(N(O)[C@H]2CCN(C(=O)c3ccccc3)C2)C1`
Response line: < 5 nM
